Tested on: E2 protein
Assay type: biochemical
Particulars: % activity at 1 μM compound; control is related to 100% activity; HTS protocol
# cutoff 80% applies to Selectivity (% A* in 1 μM) E2; >= gives Condition met, < gives Condition not met

- Chemical Smiles: "Oc1c(Br)cc(Br)cc1/C=N/c1cccc2nsnc12"
  Assigned Category: "Condition met"
- Chemical Smiles: "Cc1[nH]c(=O)c(C(=O)/C=C/c2ccccc2F)c2c1CCCC2"
  Assigned Category: "Condition met"
- Chemical Smiles: "O=c1nc(C(F)(F)F)cc(/C=C/c2ccc(-c3ccc(Br)cc3)o2)[nH]1"
  Assigned Category: "Condition met"
- Chemical Smiles: "Cc1cc(C)c(O)c(/N=C/c2c(O)ccc3ccccc23)c1"
  Assigned Category: "Condition not met"
